- measured_target: T1, recombinant human CTLA4-his protein (Acro biosystems, Cat#CT4-H5229) (human, UniProt P16410 37-162)
- T1 construct: bought recombinant protein; not shown: his tag
- T1 sequence (looked up): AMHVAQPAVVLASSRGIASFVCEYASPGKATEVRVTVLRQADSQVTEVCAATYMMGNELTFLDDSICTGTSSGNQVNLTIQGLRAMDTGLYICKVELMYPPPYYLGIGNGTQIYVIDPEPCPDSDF
- assay_procedure: BLI, Octet RED96; antibody on AHC sensor, CTLA4-his as analyte
measurement_name: koff (s⁻¹)

1. chimeric D1B6 anti-CTLA4 antibody (antibody, human IgG4 S228P, kappa, V domains shown, mouse variable domains on human IgG4/kappa, made in 293F cells) VH: EVQLQQSGPELVKPGASVKLSCKASGNTFTTYVLNWVKQKPGQGLEWIGYFNPYNDGIKYNEKFKGKATLTSDKSSNTAYMELSSLTSEDSAVYYCARFEGGGYAMDYWGQGTSVTVSS VL: DIVLTQSPASLAVSLGQRATISCRASQSVGTSRNTYIHWYQQKLGQPPKLLIKYASDLESGVPARFSGSGSGTDFTLNIHPVEEEDTATYYCQHSWEIPYTFGGGTKLEIKR = 0.00076
